# System: Angiotensin II (AII) vasopressor response
# test.description: AII Challenge: antagonism of angiotensin II vasopressor response in conscious spontaneously hypertensive rats
# Format: in vivo, rat (male okamoto-Aoki SHR)
# stated.conditions: SHR n=2; 5 mg/kg P.O.; AII 0.1 mcg/kg IV; 30 min post dose
Assignment: determine reported Average Change for the given molecules.
Answer in mmHg, number only, no unit symbol.

Indicate its recorded Average Change; the molecule in question is CCCCc1nc2ccc([C@H]3[C@@H]4CCC[C@@H]4ON3C)cc2c(=O)n1Cc1ccc(-c2ccccc2-c2nnn[nH]2)cc1 (relative stereo)
32

Return reported Average Change. Input molecule: CCCCc1nc2ccc([C@H]3[C@@H]4C(=O)OC[C@@H]4ON3C)cc2c(=O)n1Cc1ccc(-c2ccccc2-c2nnn[nH]2)cc1 (relative stereo)
17.5

Identify measured Average Change corresponding to CCCCc1nc2ccc([C@@H]3[C@H]4C(=O)CCC[C@H]4ON3C)cc2c(=O)n1Cc1ccc(-c2ccccc2-c2nnn[nH]2)cc1 (relative stereo)
26.5

Identify the reported Average Change for the following entry. CCCCc1nc2ccc([C@H]3[C@@H]4C(=O)CC[C@@H]4ON3C)cc2c(=O)n1Cc1ccc(-c2ccccc2-c2nnn[nH]2)cc1 (relative stereo)
16

###

# Test system: Angiotensin II (AII) vasopressor response
# test.description: AII Challenge: antagonism of angiotensin II vasopressor response in conscious spontaneously hypertensive rats
# Assay type: in vivo, rat (male okamoto-Aoki SHR)
# stated.conditions: SHR n=2; 3 mg/kg I.V.; AII 0.1 mcg/kg IV; 90 min post dose
attribute.measured: Average Change (mmHg)
Note: unit mmHg is implicit; provide only the numeric part.

Check Angiotensin II (AII) vasopressor response data and give Average Change for CCCCc1nc2ccc([C@H]3[C@@H]4C5CCC(C5)[C@@H]4ON3C)cc2c(=O)n1Cc1ccc(-c2ccccc2-c2nnn[nH]2)cc1 (stereo partly drawn) [Example 51] .
12.5

Param request: Average Change | system Angiotensin II (AII) vasopressor response | item CCCCc1nc2ccc([C@H]3[C@@H]4CCC[C@@H]4ON3C)cc2c(=O)n1Cc1ccc(-c2ccccc2-c2nnn[nH]2)cc1 (relative stereo) [Example 50]
26.5

State, for Angiotensin II (AII) vasopressor response, measured Average Change of the compound listed here: CCCCc1nc2ccc([C@H]3[C@@H]4C(=O)CC[C@@H]4ON3Cc3ccccc3)cc2c(=O)n1Cc1ccc(-c2ccccc2-c2nnn[nH]2)cc1 (relative stereo) [Example 55]
5

###

Kindly supply the reported Average Change values for the records listed here.
# System: Angiotensin II (AII) vasopressor response
# test.description: AII Challenge: antagonism of angiotensin II vasopressor response in conscious spontaneously hypertensive rats
# Format: in vivo, rat (male okamoto-Aoki SHR)
# stated.conditions: SHR n=2; 3 mg/kg I.V.; AII 0.1 mcg/kg IV; 60 min post dose
Report only the number, with the unit mmHg understood.

Given the compound CCCCc1nc2ccc([C@H]3[C@@H]4C(=O)OC[C@@H]4ON3Cc3ccccc3)cc2c(=O)n1Cc1ccc(-c2ccccc2-c2nnn[nH]2)cc1 (relative stereo) [Example 57] , write its reported Average Change.
5

Please report Average Change for the following compound: CCCCc1nc2ccc([C@H]3[C@@H]4CCC[C@@H]4ON3C)cc2c(=O)n1Cc1ccc(-c2ccccc2-c2nnn[nH]2)cc1 (relative stereo) [Example 50]
19

Determine its reported Average Change: CCCCc1nc2ccc([C@@H]3[C@@H]4C(=O)OC[C@@H]4ON3Cc3ccccc3)cc2c(=O)n1Cc1ccc(-c2ccccc2-c2nnn[nH]2)cc1 (relative stereo) [Example 56]
5

###

# Test system: Angiotensin II (AII) vasopressor response
# test.description: AII Challenge: antagonism of angiotensin II vasopressor response in conscious spontaneously hypertensive rats
# Format: in vivo, rat (male okamoto-Aoki SHR)
# stated.conditions: SHR n=2; 3 mg/kg I.V.; AII 0.05 mcg/kg IV; 240 min post dose
Consider the following molecules; for each one, report its Average Change.
Dear colleague, please return just the value in mmHg, with no unit written.

Quick one: give measured Average Change for CCCCc1nc2ccc([C@H]3[C@@H]4C(=O)OC[C@@H]4ON3C)cc2c(=O)n1Cc1ccc(-c2ccccc2-c2nnn[nH]2)cc1 (relative stereo) [Example 53]
25

Output Average Change of CCCCc1nc2ccc([C@H]3[C@@H]4C(=O)CC[C@@H]4ON3Cc3ccccc3)cc2c(=O)n1Cc1ccc(-c2ccccc2-c2nnn[nH]2)cc1 (relative stereo) [Example 55]
5

In one line, give reported Average Change of the entry CCCCc1nc2ccc([C@H]3[C@@H]4C(=O)OC[C@@H]4ON3Cc3ccccc3)cc2c(=O)n1Cc1ccc(-c2ccccc2-c2nnn[nH]2)cc1 (relative stereo) [Example 57] .
8

Give reported Average Change value for CCCCc1nc2ccc([C@@H]3[C@@H]4C(=O)OC[C@@H]4ON3Cc3ccccc3)cc2c(=O)n1Cc1ccc(-c2ccccc2-c2nnn[nH]2)cc1 (relative stereo) [Example 56]
9

Provide one value: measured Average Change of CCCCc1nc2ccc(C3CC4CCCCN3O4)cc2c(=O)n1Cc1ccc(-c2ccccc2-c2nnn[nH]2)cc1 (stereo not shown) [Example 18]
17.5

Tell me measured Average Change for CCCCc1nc2ccc([C@H]3[C@@H]4C(=O)CC[C@@H]4ON3C)cc2c(=O)n1Cc1ccc(-c2ccccc2-c2nnn[nH]2)cc1 (relative stereo) [Example 48] please.
15

Quickly give me recorded Average Change for CCCCc1nc2ccc([C@H]3[C@@H]4CCCCCC[C@@H]4ON3C)cc2c(=O)n1Cc1ccc(-c2ccccc2-c2nnn[nH]2)cc1 (relative stereo) [Example 52]
27.5

###

# Tested on: Angiotensin II (AII) vasopressor response
# test.description: AII Challenge: antagonism of angiotensin II vasopressor response in conscious spontaneously hypertensive rats
# Type: in vivo, rat (male okamoto-Aoki SHR)
# stated.conditions: Rattus norvegicus, iv, 1 h, SHR n=2; 3 mg/kg I.V.; AII 0.05 mcg/kg IV; 60 min post dose; read-out: Inhibition
Please respond with reported inhibition in vivo at 3 mg/kg for every item in the list.
Hi! Could you send only the number? It should be in %, unit omitted.

Quickly give me recorded inhibition in vivo at 3 mg/kg for CCCCc1nc2ccc([C@H]3[C@@H]4C(=O)OC[C@@H]4ON3Cc3ccccc3)cc2c(=O)n1Cc1ccc(-c2ccccc2-c2nnn[nH]2)cc1 (relative stereo)
100

Identify measured inhibition in vivo at 3 mg/kg corresponding to CCCCc1nc2ccc([C@H]3[C@@H]4C(=O)OC[C@@H]4ON3C)cc2c(=O)n1Cc1ccc(-c2ccccc2-c2nnn[nH]2)cc1 (relative stereo)
99

Please give measured inhibition in vivo at 3 mg/kg of the following entry: CCCCc1nc2ccc([C@H]3[C@@H]4CCC[C@@H]4ON3C)cc2c(=O)n1Cc1ccc(-c2ccccc2-c2nnn[nH]2)cc1 (relative stereo)
70

###

# System: Angiotensin II (AII) vasopressor response
# test.description: AII Challenge: antagonism of angiotensin II vasopressor response in conscious spontaneously hypertensive rats
# Type: in vivo, rat (male okamoto-Aoki SHR)
# stated.conditions: SHR n=2; 3 mg/kg I.V.; AII 0.1 mcg/kg IV; 30 min post dose
attribute.measured: Average Change (mmHg)
Express your answer in mmHg, writing the number without its unit.

Check the records and state Average Change for CCCCc1nc2ccc([C@H]3[C@@H]4C(=O)OC[C@@H]4ON3Cc3ccccc3)cc2c(=O)n1Cc1ccc(-c2ccccc2-c2nnn[nH]2)cc1 (relative stereo) [Example 57]
0.5

Give the reported Average Change for this compound. CCCCc1nc2ccc(C3CC4CCCCN3O4)cc2c(=O)n1Cc1ccc(-c2ccccc2-c2nnn[nH]2)cc1 (stereo not drawn) [Example 18]
12.5

Fill in reported Average Change for this entry: CCCCc1nc2ccc([C@H]3[C@@H]4CCCCCC[C@@H]4ON3C)cc2c(=O)n1Cc1ccc(-c2ccccc2-c2nnn[nH]2)cc1 (relative stereo) [Example 52]
10

Identify measured Average Change associated with CCCCc1nc2ccc([C@@H]3[C@@H]4C(=O)OC[C@@H]4ON3Cc3ccccc3)cc2c(=O)n1Cc1ccc(-c2ccccc2-c2nnn[nH]2)cc1 (relative stereo) [Example 56]
0

// fetch Average Change given entry CCCCc1nc2ccc([C@H]3[C@@H]4C(=O)OC[C@@H]4ON3C)cc2c(=O)n1Cc1ccc(-c2ccccc2-c2nnn[nH]2)cc1 (relative stereo) [Example 53]
9.5

Answer with the recorded Average Change for the compound listed here: CCCCc1nc2ccc([C@H]3[C@@H]4C(=O)CC[C@@H]4ON3Cc3ccccc3)cc2c(=O)n1Cc1ccc(-c2ccccc2-c2nnn[nH]2)cc1 (relative stereo) [Example 55]
2.5

Provide Average Change value for the following compound: CCCCc1nc2ccc([C@H]3[C@@H]4C(=O)CC[C@@H]4ON3C)cc2c(=O)n1Cc1ccc(-c2ccccc2-c2nnn[nH]2)cc1 (relative stereo) [Example 48]
2.5

Look up Average Change of CCCCc1nc2ccc([C@H]3[C@@H]4CCC[C@@H]4ON3C)cc2c(=O)n1Cc1ccc(-c2ccccc2-c2nnn[nH]2)cc1 (relative stereo) [Example 50] and report it.
18.5

Input CCCCc1nc2ccc([C@H]3[C@@H]4C5CCC(C5)[C@@H]4ON3C)cc2c(=O)n1Cc1ccc(-c2ccccc2-c2nnn[nH]2)cc1 (stereo partly drawn) [Example 51] , output reported Average Change.
8
